- Tested on: murine neural precursor cells (neurosphere cultures)
- experiment.notes: HTS of LOPAC library against secondary neurosphere cultures, MTT proliferation assay at 3 μM, day 7 (z score, P value)
- Type: cell-based, mouse
- cond: 168 h, 3 µM
Please go through the items and note down their Z Score.
One number for each entry.

O=c1[nH]c2ccccc2c2ccccc12
0.6765
O=C1Cc2c([nH]c3ccc(Br)cc23)-c2ccccc2N1
−1.555

Please report Z Score for every entry that follows.
1. O=C(O)c1cccnc1C(=O)O
2. N=C(N)NC(CCC(=O)O)C(=O)O (centres unmarked)
3. C=CC1=C(C)c2cc3[nH]c(cc4nc(cc5[nH]c(cc1n2)c(C)c5CCC(=O)O)C(CCC(=O)O)=C4C)c(C)c3C=C [Protoporphyrin IX disodium]

1. −2.419
2. −9.041
3. −3.441
